Values compiled from ChEMBL document CHEMBL4145444.

Tested on: Trypanosoma cruzi
Assay info: Antitrypanosomal activity against Trypanosoma cruzi Colombiana Tc1 epimastigotes measured after 72 hrs
Assay type: functional, organism-based
Test conditions: Trypanosoma cruzi, Colombiana, 72 h
pIC50: −log10 of the molar value.
Returns one of condition met or condition not met; condition met when pIC50 is >= 5.

| Smiles structure | Test target | Qualitative label |
| --- | --- | --- |
| O=C(N/N=C/c1ccc([N+](=O)[O-])o1)c1ccccc1Oc1ccccc1 | Trypanosoma cruzi | condition met |
| CCCCNc1ccc(C(=O)N/N=C/c2ccc([N+](=O)[O-])o2)cc1 | Trypanosoma cruzi | condition met |
| O=C(N/N=C/c1ccc([N+](=O)[O-])o1)c1cccs1 | Trypanosoma cruzi | condition not met |
| CN(C)c1ccc(C(=O)N/N=C/c2ccc([N+](=O)[O-])o2)cc1 | Trypanosoma cruzi | condition not met |
| CCCCCc1ccc(C(=O)N/N=C/c2ccc([N+](=O)[O-])o2)cc1 | Trypanosoma cruzi | condition met |
| CCCCCCCc1ccc(C(=O)N/N=C/c2ccc([N+](=O)[O-])o2)cc1 | Trypanosoma cruzi | condition met |
| N#CCC(=O)N/N=C/c1ccc([N+](=O)[O-])o1 | Trypanosoma cruzi | condition not met |
| CCCOc1ccc(C(=O)N/N=C/c2ccc([N+](=O)[O-])o2)cc1 | Trypanosoma cruzi | condition met |
| CCOC(=O)N/N=C/c1ccc([N+](=O)[O-])o1 | Trypanosoma cruzi | condition met |
| CCCCc1ccc(C(=O)N/N=C/c2ccc([N+](=O)[O-])o2)cc1 | Trypanosoma cruzi | condition met |
| CCCCCCCOc1ccc(C(=O)N/N=C/c2ccc([N+](=O)[O-])o2)cc1 | Trypanosoma cruzi | condition met |
| COc1ccc(C(=O)N/N=C/c2ccc([N+](=O)[O-])o2)cc1OC | Trypanosoma cruzi | condition not met |
| N#Cc1ccc(C(=O)N/N=C/c2ccc([N+](=O)[O-])o2)cc1 | Trypanosoma cruzi | condition not met |
| O=C(N/N=C/c1ccc([N+](=O)[O-])o1)c1ccc(-c2ccccc2)cc1 | Trypanosoma cruzi | condition met |
| CCc1ccc(C(=O)N/N=C/c2ccc([N+](=O)[O-])o2)cc1 | Trypanosoma cruzi | condition met |
| O=C(N/N=C/c1ccc([N+](=O)[O-])o1)c1cccc([N+](=O)[O-])c1 | Trypanosoma cruzi | condition not met |
